# measurement-target: D2L dopamine receptor (D2L) (Homo sapiens)
# Construct: expressed in transfected cells; host or cells: HEK-293 cells (membrane fractions)
# Sequence (P14416 whole entry): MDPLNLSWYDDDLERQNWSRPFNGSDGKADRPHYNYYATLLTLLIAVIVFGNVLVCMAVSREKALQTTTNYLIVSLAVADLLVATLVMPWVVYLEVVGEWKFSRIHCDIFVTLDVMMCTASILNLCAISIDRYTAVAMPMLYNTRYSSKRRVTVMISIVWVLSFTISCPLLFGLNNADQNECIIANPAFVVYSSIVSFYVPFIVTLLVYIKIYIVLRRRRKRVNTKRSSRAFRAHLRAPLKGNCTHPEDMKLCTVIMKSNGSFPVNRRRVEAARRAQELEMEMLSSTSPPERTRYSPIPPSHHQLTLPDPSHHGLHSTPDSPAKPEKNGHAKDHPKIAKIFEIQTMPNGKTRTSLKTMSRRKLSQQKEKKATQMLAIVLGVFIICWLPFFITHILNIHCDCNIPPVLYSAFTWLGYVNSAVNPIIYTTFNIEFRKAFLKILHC
# experiment: Competitive radioligand binding assay, D2L (antagonist radioligand)
# run-parameters: D2L; compound at 10 μM; mean; read-out: % inhibition of control specific binding, Mean
Counter-ions that a name gives are not always drawn.
The entries below are paired with their reported inhibition at 10 µM.
Respond numerically; units are % and should not be typed.

Here are 5 compounds together with their reported answers.
# compound, measurement-target, inhibition at 10 µM, %
measured = [
    ("NC(=S)OC[C@H](N)Cc1ccccc1 [Compound 8, dihydrochloride]", "D2L dopamine receptor (D2L) (Homo sapiens)", 1.1),
    ("NC(=O)SC[C@H](N)Cc1ccccc1 [Compound 10, hydrochloride]", "D2L dopamine receptor (D2L) (Homo sapiens)", 34.7),
    ("NC(=O)CC[C@H](N)Cc1ccccc1 [Compound 4, hydrochloride]", "D2L dopamine receptor (D2L) (Homo sapiens)", 1.1),
    ("N[C@@H](COS(N)(=O)=O)Cc1ccccc1 [Compound 9, hydrochloride]", "D2L dopamine receptor (D2L) (Homo sapiens)", -4.5),
    ("NC(=O)OC[C@H](N)Cc1ccccc1 [APC, (R)-2-amino-3-phenylpropyl carbamate, reference compound]", "D2L dopamine receptor (D2L) (Homo sapiens)", 2.3),
]

With those in mind, consider the next compound.
Respond only with inhibition at 10 µM recorded for NC(=O)NC[C@H](N)Cc1ccccc1 [Compound 3, hydrochloride] 0.5

---

# measurement-target: serotonin (5-HT) transporter (SERT) (Homo sapiens, UniProt P31645)
# Construct: expressed in transfected cells; host or cells: CHO cells (membrane fractions)
# Sequence (P31645 whole entry): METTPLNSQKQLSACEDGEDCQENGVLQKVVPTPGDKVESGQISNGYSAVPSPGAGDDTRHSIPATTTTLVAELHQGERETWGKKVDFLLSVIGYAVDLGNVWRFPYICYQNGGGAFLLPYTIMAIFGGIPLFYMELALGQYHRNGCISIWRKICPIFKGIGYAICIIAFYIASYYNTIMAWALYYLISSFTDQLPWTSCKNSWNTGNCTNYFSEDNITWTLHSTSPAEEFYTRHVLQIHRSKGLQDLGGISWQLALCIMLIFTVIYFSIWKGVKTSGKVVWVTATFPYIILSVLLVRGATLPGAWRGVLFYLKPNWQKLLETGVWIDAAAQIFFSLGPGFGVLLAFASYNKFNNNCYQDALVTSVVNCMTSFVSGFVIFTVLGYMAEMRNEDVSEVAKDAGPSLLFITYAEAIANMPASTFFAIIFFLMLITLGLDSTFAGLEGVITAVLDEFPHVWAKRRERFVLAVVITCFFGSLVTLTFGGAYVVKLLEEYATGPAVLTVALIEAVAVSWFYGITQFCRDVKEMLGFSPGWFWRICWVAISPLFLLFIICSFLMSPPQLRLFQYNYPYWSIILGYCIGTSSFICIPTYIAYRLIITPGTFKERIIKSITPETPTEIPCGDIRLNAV
# experiment: Competitive radioligand binding assay, 5-HT transporter (antagonist radioligand)
# run-parameters: 5-HT transporter; compound at 10 μM; 1st individual result; read-out: % inhibition of control specific binding, 1st
Counter-ions that a name gives are not always drawn.
inhibition at 10 µM values for the compounds below.
Express it in %; write the number only.

Solved cases below.
# compound, measure-unit, inhibition at 10 µM
records = [
    ("NC(=S)OC[C@H](N)Cc1ccccc1 [Compound 8, dihydrochloride]", "%", -1.9),
    ("NC(=O)CC[C@H](N)Cc1ccccc1 [Compound 4, hydrochloride]", "%", -2.9),
    ("NC(=O)SC[C@H](N)Cc1ccccc1 [Compound 10, hydrochloride]", "%", 21.7),
    ("NC(=O)OC[C@H](N)Cc1ccccc1 [APC, (R)-2-amino-3-phenylpropyl carbamate, reference compound]", "%", -6.3),
    ("NC(=O)NC[C@H](N)Cc1ccccc1 [Compound 3, hydrochloride]", "%", -2.4),
]

Write down the reported inhibition at 10 µM (system: serotonin (5-HT) transporter (SERT) (Homo sapiens, UniProt P31645)) of N[C@@H](COS(N)(=O)=O)Cc1ccccc1 [Compound 9, hydrochloride] -1.7

---

# measurement-target: norepinephrine transporter (NET) (Homo sapiens)
# Construct: expressed in transfected cells; host or cells: CHO cells (membrane fractions)
# Sequence (P23975 whole entry): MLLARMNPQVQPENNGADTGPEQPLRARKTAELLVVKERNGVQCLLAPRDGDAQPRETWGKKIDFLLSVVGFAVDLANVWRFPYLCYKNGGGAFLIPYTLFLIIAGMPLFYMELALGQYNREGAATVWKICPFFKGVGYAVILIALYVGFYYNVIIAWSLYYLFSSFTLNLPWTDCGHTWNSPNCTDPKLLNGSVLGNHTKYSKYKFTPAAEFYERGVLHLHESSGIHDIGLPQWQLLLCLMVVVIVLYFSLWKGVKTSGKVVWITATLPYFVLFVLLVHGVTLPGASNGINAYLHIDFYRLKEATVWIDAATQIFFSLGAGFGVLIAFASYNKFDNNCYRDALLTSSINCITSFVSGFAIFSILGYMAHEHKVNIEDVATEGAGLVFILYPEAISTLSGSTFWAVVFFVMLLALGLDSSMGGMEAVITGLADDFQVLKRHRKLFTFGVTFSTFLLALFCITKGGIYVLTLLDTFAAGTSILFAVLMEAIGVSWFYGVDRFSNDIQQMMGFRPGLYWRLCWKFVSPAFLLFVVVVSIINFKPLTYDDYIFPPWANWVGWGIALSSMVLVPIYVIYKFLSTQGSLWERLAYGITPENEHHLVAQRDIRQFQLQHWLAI
# experiment: Competitive radioligand binding assay, norepinephrine transporter (antagonist radioligand)
# run-parameters: compound at 10 μM; [3H]nisoxetine 1 nM; human recombinant (CHO cells); read-out: % Inhibition of Binding at Each Transporter or Receptor Target, NET
Structures can show the parent of a compound that is named as a salt.
readout-kind: inhibition at 10 µM (%)
Record the value in %, omitting the unit from your answer.

The following compounds have reported results that may help.
# compound, reported
data = [
    ("NC(=O)CC[C@H](N)Cc1ccccc1 [Compound 4, hydrochloride]", -7.5),
    ("NC(=O)SC[C@H](N)Cc1ccccc1 [Compound 10, hydrochloride]", 91.7),
]

// fetch inhibition at 10 µM given entry NC(=S)OC[C@H](N)Cc1ccccc1 [Compound 8, dihydrochloride] 37.8

Note inhibition at 10 µM for the compound shown: N[C@@H](COS(N)(=O)=O)Cc1ccccc1 [Compound 9, hydrochloride] 5.1

Write down inhibition at 10 µM measured for item NC(=O)NC[C@H](N)Cc1ccccc1 [Compound 3, hydrochloride] 32.8

Give me measured inhibition at 10 µM, please, for this compound: NC(=O)OC[C@H](N)Cc1ccccc1 [APC, (R)-2-amino-3-phenylpropyl carbamate, reference compound] 11.4
